Experiment: Transport study across Caco-2 cell layers
Conditions: human, Caco-2
# if value of Papp B→A at 60 min, 1 µM reaches 3 ×10⁻⁶ cm/s, tag true; if it stays below, tag false

// known answers, use as guide
[[record]]
compound = "O=S(=O)(O)C(F)(F)C(F)(F)C(F)(F)C(F)(F)C(F)(F)C(F)(F)F [PFHxS, perfluorohexane sulfonate]"
category = "true"

[[record]]
compound = "O=C(O)C(F)(OC(F)(F)C(F)(F)C(F)(F)F)C(F)(F)F (centres unmarked) [HFPO-DA, hexafluoropropylene oxide dimer acid]"
category = "false"

[[record]]
compound = "O=C(O)C(F)(F)C(F)(F)C(F)(F)C(F)(F)C(F)(F)C(F)(F)C(F)(F)C(F)(F)F [PFNA, perfluorononanoic acid]"
category = "true"

[[record]]
compound = "O=S(=O)(O)C(F)(F)C(F)(F)C(F)(F)C(F)(F)C(F)(F)C(F)(F)C(F)(F)C(F)(F)F [PFOS, perfluorooctane sulfonate]"
category = "false"


Lab note: next compound to report on.
Task: Kindly determine if Papp B→A at 60 min, 1 µM recorded for O=C(O)C(F)(F)C(F)(F)C(F)(F)C(F)(F)C(F)(F)C(F)(F)C(F)(F)F [PFOA, perfluorooctanoic acid] is above or exactly 3 ×10⁻⁶ cm/s.
Result: true
